- Tested on: MCF10A
- TEST: normalised growth rate inhibition (GR value) relative to DMSO control (GR (1 = untreated growth, 0 = cytostasis, <0 = cytotoxic)); higher = less growth inhibition
- TEST_SETTINGS: 0.04 µM; 72 h
# normalised growth rate inhibition per record follows
// response body must contain only the number

The cases that follow already have their normalised growth rate inhibition on record.
In [3]: df
Out[3]:
                                smiles_repr  measured_value
0  Cc1cnc(Nc2ccc(OCCN3CCCC3)cc2)nc1Nc1cccc(S(=O)(=O)NC(C)(C)C)c1           0.989
1  COc1cc(OC)cc(-c2ccc3ncc4ccc(=O)n(-c5ccc(N6CCNCC6)c(C(F)(F)F)c5)c4c3c2)c1           0.986
2  Cc1cc(Nc2cc(N3CCN(C)CC3)nc(Sc3ccc(NC(=O)C4CC4)cc3)n2)n[nH]1           0.395

Okay, next one:
Input line: Give its normalised growth rate inhibition value. Item: Cn1cc(-c2[nH]c3cc(NC(=O)[C@H](N)C4CCCCC4)cc4c3c2C=NNC4=O)cn1
Output line: 0.96
